biological target: Glycogen synthase kinase-3 beta (Homo sapiens); assay: concentration-response blocking of human GSK3B – biochemical, luminescence, cell-free homogeneous, retest, dose response (AID 434954)
Sequence (P49841 whole entry): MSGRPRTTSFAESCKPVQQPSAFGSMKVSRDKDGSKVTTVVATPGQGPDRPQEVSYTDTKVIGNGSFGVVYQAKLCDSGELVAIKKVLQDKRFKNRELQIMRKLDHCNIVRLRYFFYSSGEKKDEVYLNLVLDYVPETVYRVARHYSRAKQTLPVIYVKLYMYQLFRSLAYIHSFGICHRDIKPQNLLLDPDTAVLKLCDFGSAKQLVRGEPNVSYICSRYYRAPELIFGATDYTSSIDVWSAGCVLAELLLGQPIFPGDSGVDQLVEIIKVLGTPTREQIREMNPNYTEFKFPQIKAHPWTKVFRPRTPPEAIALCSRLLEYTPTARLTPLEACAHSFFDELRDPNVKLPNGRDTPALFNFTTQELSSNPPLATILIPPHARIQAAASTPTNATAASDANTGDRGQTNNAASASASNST
Each entry below lists one item and its recorded EC50 value.

{"columns": ["Molecule", "EC50"],
 "data": [
  ["CCOC(=O)/C(C#N)=C/c1cn(CCC(=O)O)nc1-c1cccc(Cl)c1", "> 300 µM"],
  ["CC1=C(C(=O)N2CCCCC2)C(c2cccs2)C2C(=O)CCCC2=N1 (stereo not given)", "> 300 µM"],
  ["O=C1/C(=C\\c2ccc(O)cc2)SC(=S)N1Cc1ccccc1", "> 300 µM"],
  ["COCCn1c(SCC(=O)Nc2cccc(S(N)(=O)=O)c2)nc2ccccc21", "> 300 µM"],
  ["COc1ccc(CCNc2nc(-c3ccc(O)cc3)cs2)cc1OC", "> 300 µM"],
  ["CCOC(=O)C1C(C)=Nc2ncnn2C1c1c[nH]c2ccccc12 (stereo not given)", "4.64 µM"],
  ["CCCOc1ccc(-c2c(C(=O)NN=C(C)c3ccco3)nnn2-c2nonc2N)cc1", "16.6 µM"],
  ["O=C(CN(Cc1ccc(F)cc1)C(=O)CCC(=O)Nc1ccccn1)NCc1ccc(F)cc1", "37.7 µM"],
  ["COc1c(CC=C(C)C)cc([C@@H]2CC(=O)c3c(O)cc(O)cc3O2)cc1CC=C(C)C", "> 300 µM"],
  ["COCCCNc1nc(N)c([N+](=O)[O-])c(NC2CCCCC2)n1", "0.86 µM"],
  ["CCC(=O)Nc1nn(CC(C)C)c2nc3ccc(C)cc3cc12", "> 300 µM"],
  ["Cc1ccc(C)c(CSc2nnc(-c3cccnc3)o2)c1", "> 300 µM"],
  ["CCN1CCN(c2cc(C)c3cc(NC(=O)CCC(=O)Nc4ccc(OC)cc4OC)ccc3n2)CC1", "> 300 µM"],
  ["COc1ccc(C(=O)OCCc2sc[n+](CC(=O)c3ccccc3)c2C)cc1", "26 µM"],
  ["CCc1ccc(Oc2ncnc(N)c2[N+](=O)[O-])cc1", "> 300 µM"],
  ["CCOC(=O)C1C(C)=Nc2ncnn2C1c1cc(Br)ccc1F (stereo not given)", "24 µM"],
  ["CCOc1ccc(-c2csc3[n+]2CC[N-]3)cc1[N+](=O)[O-]", "> 300 µM"],
  ["COC(=O)c1sc(=S)n(Cc2ccccc2)c1C", "> 300 µM"],
  ["O=C(O)Cc1sc(N[N-][CH+]c2ccc(-c3ccc(Cl)c([N+](=O)[O-])c3)o2)nc1O", "> 300 µM"],
  ["Fc1ccc(CSc2ccc3nnc(-c4cccnc4)n3n2)cc1", "> 300 µM"]
]}
